Source: PubChem BioAssay AID1159580

Assay procedure: chemical genetic growth profiling, strain panel (AID 1159580);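 also: tested at 20 µM; growth read once vehicle control cultures reached saturation at 30 °C; 1 = growth at the plate median or of vehicle wells; lower values mean less growth of the strain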
Experimental setup: S. cerevisiae deletion strains, growth OD, locus YLR342W, strain FKS1, stronger effect = lower value
In all, about 5,500 compounds went through this assay and about 2,000 (36%) were called active. Not shown: some 18% with an inconclusive outcome. The list shows a part of the results.
Each entry below carries its recorded normalized growth.

Use these answered entries as a reference point.
| Compound | Result |
| --- | --- |
| CC(=O)[C@@]1(O)CCC2C3C[C@H](C)C4=CC(=O)C=CC4(C)[C@@]3(F)[C@@H](O)C[C@@]21C (stereo partly drawn) | 0.979 (inactive) |
| COc1ccc2c(c1)CCC1C2CCC2(C)C1C[C@@H](O)C2O (stereo partly drawn) | 0.947 (inactive) |
| COc1c2ccoc2cc2oc(=O)ccc12 | 1.01 (inactive) |
| COc1ccc2c(c1)CCC1C2CC[C@@]2(C)C1CC[C@@H]2O (stereo partly drawn) | 0.781 (active) |
| CCC1OC(=O)[C@H](C)C(=O)[C@H](C)[C@@H](OC2O[C@H](C)C[C@H](N(C)C)[C@H]2O)[C@](C)(OC)C2(CCCn3cnc(-c4cccnc4)c3)C[C@@H](C)C(=O)[C@H](C)[C@H]3N(C2)C(=O)O[C@]13C (stereo partly drawn) | 1.01 (inactive) |

normalized growth for CCCCC1C(=O)N(c2ccccc2)N(c2ccc(O)cc2)C1=O (stereo not drawn) ? 1.01 (inactive)

normalized growth for `COc1cc2occc2c2oc(=O)ccc12` ? 1.02 (inactive)

normalized growth for Cc1ccccc1OCC(O)CO (stereo not drawn) ? 0.966 (inactive)

---

Each entry below carries its recorded normalized growth.
Assay procedure: chemical genetic growth profiling, strain panel (AID 1159580)
Experimental setup: S. cerevisiae deletion strains, growth OD, locus YGL078C, strain dbp3, stronger effect = lower value
In all, about 5,500 compounds went through this assay and about 2,000 (36%) were called active. Inconclusive results (about 18%) are left out. Some of the results follow.

Use these answered entries as a reference point.
| Molecule | normalized growth |
| --- | --- |
| OCC(O)C(O)C(O)C(O)C(O)CO (stereo not given) | 1.01 (inactive) |
| CC(C)(O)[C@@H]1Cc2cc3ccc(=O)oc3cc2O1 | 1.01 (inactive) |
| CCN(Cc1ccncc1)C(=O)C(CO)c1ccccc1 (stereo not given) | 1 (inactive) |
| CC(C)C1COc2cc3oc(=O)ccc3cc2O1 (stereo not given) | 0.976 (inactive) |
| O=C(O)C1=C[C@@H](O)[C@@H](O)[C@H](O)C1 | 1.01 (inactive) |

normalized growth for `O=C(O[C@@H]1Cc2c(O)cc(O)cc2O[C@@H]1c1cc(O)c(=O)c2c(O)c(O)cc([C@H]3Oc4cc(O)cc(O)c4C[C@H]3OC(=O)c3cc(O)c(O)c(O)c3)c2c1)c1cc(O)c(O)c(O)c1` ? 1.02 (inactive)

normalized growth for NS(=O)(=O)c1cc(C2(O)NC(=O)c3ccccc32)ccc1Cl (stereo not given) ? 1.02 (inactive)

normalized growth for Oc1cc2c(cc1O)C1c3ccc(O)c(O)c3OCC1(O)C2 (stereo not given) ? 0.972 (inactive)

normalized growth for O=C(OC1Cc2c(O)cc(O)cc2OC1c1cc(=O)c(O)c2c(O)c(O)cc(C3Oc4cc(O)cc(O)c4CC3O)c2c1)c1cc(O)c(O)c(O)c1 (stereo not given) ? 1 (inactive)

normalized growth for Oc1ccc2c(c1)OCC1(O)Cc3cc(O)c(O)cc3C21 (stereo not given) ? 0.986 (inactive)

---

Assay procedure: chemical genetic growth profiling, strain panel (AID 1159580)
Experimental setup: S. cerevisiae deletion strains, growth OD, locus YHR079C, strain IRE1
In all, about 5,500 compounds went through this assay and about 2,000 (36%) were called active. Inconclusive results (about 18%) are left out. Rule as the data show it: active = normalized growth mostly below about 0.91 (no sharp cut-off); inconclusive = no clear call, values can overlap the other calls; inactive = mostly above about 0.92. The list shows a part of the results.
One label from this list, please: active, inactive

A selection of reference data follows.
| Compound | Assigned label |
| --- | --- |
| COc1ccc(Cl)cc1C(=O)NCCc1ccc(S(=O)(=O)NC(=O)NC2CCCCC2)cc1 | inactive |
| CN(C)c1ccc2nc3ccc(=[N+](C)C)cc-3sc2c1 | inactive |

For CC(=O)NC(Cc1ccccc1)C(=O)O (stereo unspecified) , what call appears in the results of this test? inactive

---

Assay procedure: chemical genetic growth profiling, strain panel (AID 1159580);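 also: tested at 20 µM; growth read once vehicle control cultures reached saturation at 30 °C; 1 = growth at the plate median or of vehicle wells; lower values mean less growth of the strain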
Experimental setup: S. cerevisiae deletion strains, growth OD, locus YHR030C, strain SLT2, stronger effect = lower value
Out of some 5,500 compounds screened, about 2,000 (36%) were called active. Roughly 18% stayed inconclusive and do not appear here. The list shows a part of the results.
Each entry below carries its recorded normalized growth.
Please reply with the value in numeric form only.

| Molecule | Quantitative result |
| --- | --- |
| COc1ccc2c(c1C(C)C)CCC1C(C)(C)C(=O)CCC21C (stereo not drawn) | 0.979 |
| O=S(=O)(Oc1cc(Cl)cc(Cl)c1)c1cccc(S(=O)(=O)Oc2cc(Cl)cc(Cl)c2)c1 | 1.04 |

normalized growth for `COc1cccc2c(C)cc(=O)[nH]c12` ? 0.945

normalized growth for CCOC(=O)C1C(c2cccnc2)C(C(=O)OCC)C(O)(C(F)(F)F)NC1(O)C(F)(F)F (stereo not drawn) ? 1.01

normalized growth for `c1ccc(-c2nnc(-c3ccccn3)nc2-c2ccccc2)cc1` ? 0.531

normalized growth for Cc1c(C)c(C)c(C(O)c2ccccc2)c(C)c1C (stereo not drawn) ? 0.442

normalized growth for `FC(F)(F)c1ccc(N2CCc3ccccc3C2)c(NC(=S)Nc2cc(Cl)cc(Cl)c2)c1` ? 1.15

normalized growth for `FC(F)(F)c1ccc(Cl)c(NC(=S)NN=C2CCCCCC2)c1` ? 0.924

normalized growth for C[C@]12C=CC(=O)C=C1CCC1C2[C@@H](O)C[C@@]2(C)C1CC[C@]2(O)C(=O)COC(=O)CCC(=O)O (stereo partly drawn) ? 0.969

normalized growth for `CN(C)c1nc(N)c(C(=O)N=C(N)N)nc1Cl` ? 1.01

normalized growth for `Cc1cc(Cl)ccc1NNC(=O)c1sccc1Br` ? 0.489

normalized growth for `O=C(NNc1ccc(F)cc1F)c1sccc1Cl` ? 0.903

normalized growth for `FC(F)(F)c1cccc(NC(=S)NN=C2CCCCCC2)c1` ? 0.846

---

Assay procedure: chemical genetic growth profiling, strain panel (AID 1159580);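 also: tested at 20 µM; growth read once vehicle control cultures reached saturation at 30 °C; 1 = growth at the plate median or of vehicle wells; lower values mean less growth of the strain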
Experimental setup: S. cerevisiae deletion strains, growth OD, locus YML120C, strain ndi1
Among all 5,500 compounds or so, about 2,000 (36%) were called active. About 18% were inconclusive and are not listed. Cut-off read from the data, not from the text of the source: active = normalized growth mostly below about 0.91 (no sharp cut-off); inconclusive = no clear call, values can overlap the other calls; inactive = mostly above about 0.92. Some of the results follow.
One label from this list, please: T for active, F for inactive

A selection of reference data follows.
| Compound | Assigned label |
| --- | --- |
| O=C(O[C@@H]1Cc2c(O)cc(O)cc2O[C@@H]1c1cc(O)c(=O)c2c(O)c(O)cc([C@H]3Oc4cc(O)cc(O)c4C[C@H]3OC(=O)c3cc(O)c(O)c(O)c3)c2c1)c1cc(O)c(O)c(O)c1 | T |
| C[N+](C)(C)CC(O)CC(=O)O (stereo not drawn) | F |
| Cc1cc(C2CCCCC2)n(O)c(=O)c1 | T |

For `Cc1[nH]ccc2c1[nH]c1cc(=O)ccc12` , what call appears in the results of this test? F

For `COc1cccc2c(C)cc(=O)[nH]c12` , what call appears in the results of this test? T

For CNC(C)C(O)c1ccccc1 (stereo not drawn) , what call appears in the results of this test? F

For CCC1OC(=O)[C@H](C)C(=O)[C@H](C)[C@@H](OC2O[C@H](C)C[C@H](N(C)C)[C@H]2O)[C@](C)(OC)C2(CCCn3cnc(-c4cccnc4)c3)C[C@@H](C)C(=O)[C@H](C)[C@H]3N(C2)C(=O)O[C@]13C (stereo partly drawn) , what call appears in the results of this test? F

For O=C(OC1Cc2c(O)cc(O)cc2OC1c1cc(=O)c(O)c2c(O)c(O)cc(C3Oc4cc(O)cc(O)c4CC3O)c2c1)c1cc(O)c(O)c(O)c1 (stereo not drawn) , what call appears in the results of this test? F

---

Each entry below carries its recorded normalized growth.
Assay procedure: chemical genetic growth profiling, strain panel (AID 1159580);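 also: tested at 20 µM; growth read once vehicle control cultures reached saturation at 30 °C; 1 = growth at the plate median or of vehicle wells; lower values mean less growth of the strain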
Experimental setup: S. cerevisiae deletion strains, growth OD, locus YJL164C, strain tpk1, stronger effect = lower value
The whole screen tested about 5,500 compounds, of which about 2,000 (36%) were called active. Another 18% or so got no clear call; they are omitted. The list shows a part of the results.

| Molecule | normalized growth |
| --- | --- |
| CC[n+]1c(-c2ccccc2)c2cc(N)ccc2c2ccc(N)cc21 | 0.963 (inactive) |
| C[C@@H]1CC[C@@]2(OC1)OC1CC3C4CC=C5C[C@@H](O)CC[C@]5(C)C4CC[C@]3(C)C1[C@@H]2C (some centres undefined) | 1 (inactive) |
| CCCCCC(=O)Cc1cc(O)cc(O)c1C(=O)Oc1cc(CC(=O)CCCCC)c(C(=O)O)c(OC)c1 | 0.899 (active) |
| CC1CC[C@]2(NC1)O[C@H]1CC3C4CC[C@H]5C[C@@H](O)CC[C@]5(C)C4CC[C@]3(C)[C@H]1[C@@H]2C (some centres undefined) | 0.0795 (active) |
| Oc1ccc2c(c1)OCC1(O)Cc3cc(O)c(O)cc3C21 (centres undefined) | 1.03 (inactive) |
| CNC(=O)Oc1cccc2c1OC(C)(C)O2 | 0.991 (inactive) |
| Oc1cc2c(cc1O)C1c3ccc(O)c(O)c3OCC1(O)C2 (centres undefined) | 0.991 (inactive) |
| CC(=O)[C@@]1(O)CCC2C3C[C@H](C)C4=CC(=O)C=CC4(C)[C@@]3(F)[C@@H](O)C[C@@]21C (some centres undefined) | 0.937 (inactive) |

Now, please, on to the next molecule.
normalized growth for `COc1c2ccoc2cc2oc(=O)ccc12` ? 0.937 (inactive)
